- Test system: HEK-293T
- assayText: Incucyte cell viability with HEK293T; note: unitless GR value; below 1 slowed growth and below 0 cell loss
- Format: toxicity, cell-based
- conditionLabel: human, 12 h, 10 µM, compound concentration 10 uM, replicate number 2
Field: label. Allowed values: Fulfilled (Growth Rate < 0.4) or Not fulfilled (Growth Rate >= 0.4).

Check out these entries, answers already filled in.
Nc1ncc2c(n1)-c1c([nH]c3ccc(C4=CCOCC4)cc13)CCC2 ... Fulfilled
CCCOc1cnc(CN/C=C2\C(=O)NC(=O)c3ccc(I)cc32)cc1O ... Fulfilled
CC[C@H]1[C@@H](O)[C@@H]2[C@H](CC[C@]3(C)[C@@H]([C@H](C)CCC(=O)O)CC[C@@H]23)[C@@]2(C)CC[C@@H](O)C[C@@H]12 ... Not fulfilled
O=C1c2c(Br)c(Br)c(Br)c(Br)c2C(=O)N1c1ncc[nH]1 ... Not fulfilled
O=C1NCc2ccc3c(-c4cccc(Cl)c4)c[nH]c3c21 ... Fulfilled

stdin: Hello, is Growth Rate of the following compound strictly smaller than 0.4? COc1cc(C(C)C)c(Oc2cnc(NC(CO)CO)nc2N)cc1I
stdout: Not fulfilled

stdin: In the record for COc1cc(N[C@@H]2CCCC[C@]2(O)C(F)(F)F)ccc1F , is Growth Rate less than 0.4?
stdout: Not fulfilled

stdin: Quick check: Growth Rate of Cl.O=C(NCCN1CCC2(CC1)C(=O)NCN2c1cccc(F)c1)c1ccc2ccccc2c1 under 0.4?
stdout: Fulfilled

----------
- Tested on: Fibroblast
- assayText: Incucyte cell viability with human fibroblast; note: unitless GR value; below 1 slowed growth and below 0 cell loss
- Assay type: toxicity, cell-based
- conditionLabel: 6 h, 10 µM, compound concentration 10 uM, replicate number 2
Please map values of Growth Rate to classes as shown: lo = under -0.7, med = from -0.7 up to 0.1, hi = 0.1 and over

Would you please look over these solved cases?
CCCCCN1C(=O)C2(COc3cc4c(cc32)OCO4)c2ccccc21 (stereo not given) ... lo
COCCN1CCN(CCn2ccc(Nc3ncc4c(n3)-c3c(nn(C)c3-c3ccccc3)C[C@H]4C)n2)CC1 ... hi
Cc1cc(NC(=O)c2cccc(NC(=O)/C=C/CN(C)C)c2)ccc1Nc1nccc(-c2cccnc2)n1 ... hi
CC(C)[C@H](C(=O)Nc1ccc(C(=O)NO)cc1)c1ccccc1 [AR-42] ... hi
Cc1cc([N+](=O)[O-])c(NS(=O)(=O)c2cccc(C(=O)O)c2)cc1-c1cccnc1 [ALOFANIB] ... hi

stdin: Using the reported Growth Rate, which band applies to CC(=O)N(CCN(C)C)c1ccc(N/C(=C2\C(=O)Nc3cc(Cl)ccc32)c2ccccc2)cn1 ?
stdout: lo

stdin: For COc1ccc(S(=O)(=O)N2CCOCC2)cc1Nc1ccc2c(n1)N(C1CCOCC1)[C@H](C)C(=O)N2C , which Growth Rate bin applies?
stdout: med

----------
Exercise: state measured Growth Rate for each of the compounds provided.
- Tested on: U2OS
- assayText: Incucyte cell viability with U2OS; note: unitless GR value; below 1 slowed growth and below 0 cell loss
- Format: toxicity, cell-based
- conditionLabel: human, 12 h, 10 µM, compound concentration 10 uM, replicate number 1
Numbers only.

Quick request: Growth Rate for each listed item, please.
1. Cc1cc(-c2cc3ncccc3c(OC[C@H]3CCCNC3)n2)ccc1N(C)C.O=C(O)C(F)(F)F
2. CCCC(=O)C1CCN(c2ncnc3c2CN(C(=O)c2ccc(-c4ccccc4)cc2)CC3)CC1

stdout:
1. 0.77
2. 0.92

List reported Growth Rate for each of these compounds:
1. CCOC(=O)C1=C(C)NC(C)=C(C(=O)OC)C1c1cccc([N+](=O)[O-])c1 (centres undefined)
2. NC(=O)OC[C@H](NC(=O)Cn1nc(-c2ccc(Cl)cc2)n(C[C@H](O)C(F)(F)F)c1=O)c1cccc(C(F)(F)F)c1

stdout:
1: 0.89; 2: 0.85
